Target: UniProt P05364
Sequence (P05364 21-381): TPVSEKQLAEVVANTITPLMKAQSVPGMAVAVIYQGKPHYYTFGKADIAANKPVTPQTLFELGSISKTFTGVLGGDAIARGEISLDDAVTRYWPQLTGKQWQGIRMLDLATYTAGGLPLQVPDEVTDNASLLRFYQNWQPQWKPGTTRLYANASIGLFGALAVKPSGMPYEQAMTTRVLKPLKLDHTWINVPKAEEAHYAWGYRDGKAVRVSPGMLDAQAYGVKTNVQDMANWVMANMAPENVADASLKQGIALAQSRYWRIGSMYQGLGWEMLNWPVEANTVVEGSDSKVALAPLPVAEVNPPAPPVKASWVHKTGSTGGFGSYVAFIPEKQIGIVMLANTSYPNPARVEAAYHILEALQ
Assay: biochemical
Design: species or system Enterobacter cloaca
Structures can show the parent of a compound that is named as a salt.
Class boundaries, taken from values of IC50, are as follows: label 0 (below 2 nM), label 1 (2 nM to below 9 nM), label 2 (9 nM or more)

Please review the following examples before continuing.
Q: For the record O=C([O-])C1=CS[C@@H]2/C(=C\c3ccc4nc5n(c4c3)CCCS5)C(=O)N12.[Na+] [Example 29, sodium salt] , report the class its IC50 corresponds to.
Result: label 2

Q: For the record O=C(O)C1=CS[C@@H]2/C(=C\c3cc4oc5c(n4n3)CCOC5)C(=O)N12 [Example 31, sodium salt] , report the class its IC50 corresponds to.
Result: label 1

Q: For the record O=C([O-])C1=CS[C@@H]2/C(=C\c3cn4c5c(c(OCCOCc6ccccc6)nc4n3)CCC5)C(=O)N12.[Na+] [Example 27, sodium salt] , report the class its IC50 corresponds to.
Result: label 1

Q: For the record O=C(O)C1=CS[C@@H]2/C(=C\c3cn4c(cnc5ccccc54)n3)C(=O)N12 [Example 6, sodium salt] , report the class its IC50 corresponds to.
Result: label 0

Others:
Q: For the record COc1nc2nc(/C=C3/C(=O)N4C(C(=O)O)=CS[C@H]34)cn2c2c1CCC2 [Example 26, sodium salt] , report the class its IC50 corresponds to.
Result: label 2

Q: For the record O=C([O-])C1=CS[C@@H]2/C(=C\c3ccc4nc5n(c4c3)CCS5)C(=O)N12.[Na+] [Example 28, sodium salt] , report the class its IC50 corresponds to.
Result: label 1

Q: For the record O=C([O-])C1=CS[C@@H]2/C(=C\c3ccc4nc5sccn5c4c3)C(=O)N12.[Na+] [Example 30, sodium salt] , report the class its IC50 corresponds to.
Result: label 2

Q: For the record O=C(O)C1=CS[C@@H]2/C(=C\c3cn4c(ccc5ccccc54)n3)C(=O)N12 [Example 4] , report the class its IC50 corresponds to.
Result: label 1

Q: For the record CCOc1nc2nc(C=C3C(=O)N4C(C(=O)O)=CSC34)cn2c2c1CCC2 (stereo not drawn) [Example 10] , report the class its IC50 corresponds to.
Result: label 1

Q: For the record COc1ccc2c(c1)sc1nc(/C=C3/C(=O)N4C(C(=O)O)=CS[C@H]34)cn12 [Example 2] , report the class its IC50 corresponds to.
Result: label 1

Q: For the record O=C(O)C1=CS[C@@H]2/C(=C\c3cn4c(n3)sc3ccccc34)C(=O)N12 [Example 1] , report the class its IC50 corresponds to.
Result: label 0

Q: For the record O=C(O)C1=CS[C@@H]2/C(=C\c3cn4c(n3)-c3ccccc3C4)C(=O)N12 [Example 12, sodium salt] , report the class its IC50 corresponds to.
Result: label 2

----------
Molecular target: class A β-lactamase Imi-1 (Enterobacter cloacae)
Sequence (Q46991 entry or part of it): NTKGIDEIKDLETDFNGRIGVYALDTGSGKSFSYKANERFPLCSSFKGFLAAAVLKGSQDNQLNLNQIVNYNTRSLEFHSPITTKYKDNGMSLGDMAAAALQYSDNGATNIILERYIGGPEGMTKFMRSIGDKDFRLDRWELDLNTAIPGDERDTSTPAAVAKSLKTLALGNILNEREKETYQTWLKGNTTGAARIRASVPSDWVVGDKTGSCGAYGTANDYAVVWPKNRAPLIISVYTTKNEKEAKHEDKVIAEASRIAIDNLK
Assay: β-Lactamase inhibition, IC50 determination (nitrocefin, spectrophotometric)
Assay type: biochemical
Where a name gives a salt, the structure may show the parent alone.
metric: pIC50
Give bare numbers, as −log10 of the molar value.

Worked cases, pIC50 given:
Q: // pIC50 lookup, key: O=C([O-])C1=CS[C@@H]2/C(=C\c3ccc4nc5n(c4c3)CCCS5)C(=O)N12.[Na+] [Example 29, sodium salt]
Result: 6.52

Q: // pIC50 lookup, key: O=C(O)C1=CS[C@@H]2/C(=C\c3cn4c(n3)nc3n4CCCC3)C(=O)N12 [Example 8, sodium salt]
Result: 7.82

Q: // pIC50 lookup, key: O=C(O)C1=CS[C@@H]2/C(=C/c3ccc4c(c3)N(Cc3ccccc3)C(=O)c3ccccc3O4)C(=O)N12
Result: 5.44

Q: // pIC50 lookup, key: O=C([O-])C1=CS[C@@H]2/C(=C\c3ccc4nc5n(c4c3)CCS5)C(=O)N12.[Na+] [Example 28, sodium salt]
Result: 7.05

Turning now to a further molecule:
Q: // pIC50 lookup, key: CCOc1nc2nc(C=C3C(=O)N4C(C(=O)O)=CSC34)cn2c2c1CCC2 (centres unmarked)
Result: 7.46
